system: L1210 leukemia ip in BDF1 mice, survival T/C; test: NCI In Vivo Anticancer Drug Screen. Data for tumor model L1210 Leukemia (intraperitoneal) in B6D2F1 (BDF1) mice; details: endpoint: mean survival time; dose: 200.0 mg/kg/injection; schedule: Q01DX001 (ip); vehicle: other; higher = longer survival
Inconclusive results and toxic doses are left out.
Catalogue of molecules with associated T/C

- chemical.smiles: "C/C=C/C=N/Nc1ccccc1"
  assay.target: "L1210 leukemia ip in BDF1 mice, survival T/C"
  T/C: "90 % of control"
- chemical.smiles: "CCC(CN)(c1ccccc1)c1ccccc1"
  assay.target: "L1210 leukemia ip in BDF1 mice, survival T/C"
  T/C: "102 % of control"
- chemical.smiles: "CCOC(CN=Cc1cc(C)c2[nH]c3ccc(OC)cc3c2c1C)OCC"
  assay.target: "L1210 leukemia ip in BDF1 mice, survival T/C"
  T/C: "102 % of control"
- chemical.smiles: "O=C(OCCCCCCCOC(=O)c1ccc([N+](=O)[O-])cc1)c1ccc([N+](=O)[O-])cc1"
  assay.target: "L1210 leukemia ip in BDF1 mice, survival T/C"
  T/C: "96 % of control"
- chemical.smiles: "Oc1cc(O)c(CN2CCOCC2)c(O)c1CN1CCOCC1"
  assay.target: "L1210 leukemia ip in BDF1 mice, survival T/C"
  T/C: "100 % of control"
- chemical.smiles: "Clc1ccc2nc(/C=C/c3ccccc3)ccc2c1"
  assay.target: "L1210 leukemia ip in BDF1 mice, survival T/C"
  T/C: "104 % of control"

====

test system: L1210 leukemia ip in BDF1 mice, survival T/C; assay: NCI In Vivo Anticancer Drug Screen. Data for tumor model L1210 Leukemia (intraperitoneal) in B6D2F1 (BDF1) mice; conditions: endpoint: mean survival time; dose: 100.0 mg/kg/injection; schedule: Q01DX009 (ip); vehicle: saline; higher = longer survival
Inconclusive results and toxic doses are left out. Square brackets hold non-standard residues; d marks the D form. Peptide text beside a SMILES is read from it. ξ: configuration not given here. ξV = CC(C)C(N)C(=O)O
outcome.measure: T/C

- compound: "O=S(=O)(O)CCC(CO)(CO)CO"
  outcome.measure: "T/C"
  result: "98 % of control"
- compound: "CCC1CN1P(=O)(N(CC)CC)N1CC1CC (stereo not drawn)"
  outcome.measure: "T/C"
  result: "107 % of control"
- compound: "O=C(NO)c1ccc(C(=O)NO)c(Br)c1"
  outcome.measure: "T/C"
  result: "103 % of control"
- compound: "CC(=O)C[N+]12CN3CN(CN(C3)C1)C2"
  outcome.measure: "T/C"
  result: "109 % of control"
- compound: "Cc1ccc(NC(=O)OCCN(C)C)cc1NC(=O)OCCN(C)C"
  outcome.measure: "T/C"
  result: "102 % of control"
- compound: "CC(=O)Nc1onc(C)c1[N+](=O)[O-]"
  outcome.measure: "T/C"
  result: "101 % of control"
- compound: "NC1CC[N-]CC1.NC1CC[N-]CC1.[Cl][Pt+2][Cl]"
  outcome.measure: "T/C"
  result: "94 % of control"
- compound: "CCC(N)Cc1ccc(OC)c(OC)c1 (stereo not drawn)"
  outcome.measure: "T/C"
  result: "98 % of control"
- compound: "COC(=O)C1=C(C(=O)OC)C2CCC1O2"
  outcome.measure: "T/C"
  result: "112 % of control"
- compound: "CC(C)C(N)C(=O)NCC(=O)NCC(=O)O (stereo not drawn) (H-[ξV]-Gly-Gly-OH)"
  outcome.measure: "T/C"
  result: "98 % of control"
- compound: "CCC(=O)ONO"
  outcome.measure: "T/C"
  result: "102 % of control"
- compound: "Clc1ccc2n[nH]c(Cl)c2c1"
  outcome.measure: "T/C"
  result: "96 % of control"
- compound: "OCCOCCN1CCN(C(c2ccccc2)c2ccc(Cl)cc2)CC1 (stereo not drawn)"
  outcome.measure: "T/C"
  result: "103 % of control"

====

tested on: L1210 leukemia ip in BDF1 mice, survival T/C; experiment: NCI In Vivo Anticancer Drug Screen. Data for tumor model L1210 Leukemia (intraperitoneal) in B6D2F1 (BDF1) mice; conditions: endpoint: mean survival time; dose: 100.0 mg/kg/injection; schedule: Q04DX003 (ip); vehicle: Klucel (hydroxypropylcellulose) (HPC); higher = longer survival
Inconclusive results and toxic doses are left out.

- compound: "O=C1c2ccccc2C(=O)c2cc3cc(Cl)ccc3cc21"
  assay.target: "L1210 leukemia ip in BDF1 mice, survival T/C"
  T/C: "90 % of control"
- compound: "COc1ccc(Cl)cc1NC(=O)CC(C)=O"
  assay.target: "L1210 leukemia ip in BDF1 mice, survival T/C"
  T/C: "97 % of control"
- compound: "CC1(C(N)=O)OC12CCCCC2CCC(=O)O (stereo not drawn)"
  assay.target: "L1210 leukemia ip in BDF1 mice, survival T/C"
  T/C: "102 % of control"
- compound: "O=C1CC(C(c2ccccc2)c2ccccc2)CO1 (stereo not drawn)"
  assay.target: "L1210 leukemia ip in BDF1 mice, survival T/C"
  T/C: "94 % of control"
- compound: "CC(=O)CC(=O)N1CCC(C)CC1"
  assay.target: "L1210 leukemia ip in BDF1 mice, survival T/C"
  T/C: "103 % of control"
- compound: "O=[N+]([O-])c1ccc(C(Cl)S(=O)(=O)c2ccccc2)cc1 (stereo not drawn)"
  assay.target: "L1210 leukemia ip in BDF1 mice, survival T/C"
  T/C: "111 % of control"
- compound: "CCCCCCCCCCCCCCCC(=O)Nc1ccc(C(C)=O)cc1"
  assay.target: "L1210 leukemia ip in BDF1 mice, survival T/C"
  T/C: "91 % of control"
- compound: "CON=C(c1ccc(N(C)C)cc1)c1ccc(N(C)C)cc1"
  assay.target: "L1210 leukemia ip in BDF1 mice, survival T/C"
  T/C: "103 % of control"
- compound: "c1ccc2oc(CCCCc3nc4ccccc4o3)nc2c1"
  assay.target: "L1210 leukemia ip in BDF1 mice, survival T/C"
  T/C: "102 % of control"
- compound: "O=c1c2ccccc2[nH]c2ccc(Cl)cc12"
  assay.target: "L1210 leukemia ip in BDF1 mice, survival T/C"
  T/C: "96 % of control"
- compound: "CS(=O)(=O)OC1CCCCC1Oc1ccc(Br)cc1 (stereo not drawn)"
  assay.target: "L1210 leukemia ip in BDF1 mice, survival T/C"
  T/C: "101 % of control"
- compound: "Nc1nc2[nH]c(=O)cnc2c(=O)[nH]1"
  assay.target: "L1210 leukemia ip in BDF1 mice, survival T/C"
  T/C: "110 % of control"
- compound: "COc1ccc(S(=O)(=O)NC(=O)NC(=O)C=C(C)C)cc1"
  assay.target: "L1210 leukemia ip in BDF1 mice, survival T/C"
  T/C: "102 % of control"
- compound: "COc1cc(NC(=O)Nc2cc(OC)c(OC)c(OC)c2)cc(OC)c1OC"
  assay.target: "L1210 leukemia ip in BDF1 mice, survival T/C"
  T/C: "96 % of control"
- compound: "Fc1c(F)c(F)c(Oc2c(F)c(F)[c]([Sn]([c]3c(F)c(F)c(Oc4c(F)c(F)c(F)c(F)c4F)c(F)c3F)([c]3c(F)c(F)c(Oc4c(F)c(F)c(F)c(F)c4F)c(F)c3F)[c]3c(F)c(F)c(Oc4c(F)c(F)c(F)c(F)c4F)c(F)c3F)c(F)c2F)c(F)c1F"
  assay.target: "L1210 leukemia ip in BDF1 mice, survival T/C"
  T/C: "103 % of control"
- compound: "O=C(N/N=C\\c1ccc2c(c1)OCO2)N/N=C/c1ccc2c(c1)OCO2"
  assay.target: "L1210 leukemia ip in BDF1 mice, survival T/C"
  T/C: "97 % of control"
- compound: "c1ccc2c(c1)ccc1ncccc12"
  assay.target: "L1210 leukemia ip in BDF1 mice, survival T/C"
  T/C: "103 % of control"
- compound: "c1ccc2[nH]c(/N=N/c3nc4ccccc4[nH]3)nc2c1"
  assay.target: "L1210 leukemia ip in BDF1 mice, survival T/C"
  T/C: "94 % of control"
- compound: "CC1(C)CC(=O)c2c(cc(O)c3ccc(=O)oc23)O1"
  assay.target: "L1210 leukemia ip in BDF1 mice, survival T/C"
  T/C: "100 % of control"
- compound: "CCC(Sc1ccccc1[N+](=O)[O-])[N+](=O)[O-] (stereo not drawn)"
  assay.target: "L1210 leukemia ip in BDF1 mice, survival T/C"
  T/C: "105 % of control"
- compound: "O=C1NCCCC1c1nc2cccc3c2n1CCC3 (stereo not drawn)"
  assay.target: "L1210 leukemia ip in BDF1 mice, survival T/C"
  T/C: "94 % of control"
- compound: "COc1cc2c(cc1O)C(=O)CCCC2"
  assay.target: "L1210 leukemia ip in BDF1 mice, survival T/C"
  T/C: "94 % of control"
- compound: "CC(=O)Nc1ccc(S(=O)(=O)F)cc1[N+](=O)[O-]"
  assay.target: "L1210 leukemia ip in BDF1 mice, survival T/C"
  T/C: "97 % of control"
